- assay system: human NCX1 (Homo sapiens, UniProt P32418)
- Construct: expressed in transfected cells
- method description: Inhibition of Ca2+ influx into cells (NCX1 reverse mode), FLIPR Fluo-4 assay
- Format: cell-based
- condition: inhibition of NCX1 in reverse mode (Ca2+ influx into cells); read-out: NCX1rv IC50
- Description: The sodium/calcium exchanger NCX1 can transport calcium ions and sodium ions through the cell membrane. The transport is an exchange of Ca^2+ and Na^+ in two directions depending on membrane potential and ion gradients. […] The effect of the compounds of the invention on NCX1 was determined in CHO cells stably expressing human NCX1 (gene symbol SLC8A1; cf. WO 2009/115238). […]
Where a name gives a salt, the structure may show the parent alone.
Just a reminder that ties go to 0.0: only IC50 strictly below 500 nM counts as 1.0.

compound: COc1c(F)cccc1C1CCc2cc(OC3CCC(C(=O)NCc4ccno4)CC3)ccc2O1 (stereo not shown) [compound 301]
label: 1.0
//
compound: C[C@@H](N)C(=O)N[C@H]1CC[C@H](Oc2ccc3c(c2)CCC(c2ccccc2)O3)CC1 (stereo partly shown) [compound 72, hydrochloride]
label: 1.0
//
compound: N[C@H]1CC[C@@H](Oc2ccc3c(c2)CCC(c2ccccc2)O3)CC1 (relative stereo) [compound 2, hydrochloride]
label: 0.0
//
compound: CCn1cc(CN[C@H]2CC[C@H](Oc3ccc4c(c3)CCC(c3ccccc3)O4)CC2)c(C)n1 (stereo partly shown) [compound 68]
label: 1.0
//
compound: Cc1ccccc1C1CCc2cc(OC3CCC(NCC4CCOCC4)CC3)ccc2O1 (stereo not shown) [compound 208]
label: 0.0

----------
- assay system: human NCX1 (Homo sapiens)
- Construct: expressed in transfected cells
- method description: Inhibition of Ca2+ efflux out of cells (NCX1 forward mode), FLIPR calcium assay
- Type: cell-based
- condition: CHO cells stably expressing human NCX1; Ca2+ efflux after Ionomycin; read-out: NCX1fw IC50 (inhibition of NCX1 in forward mode)
measurement name: IC50 (nM)

molecule: Cc1ccccc1C1CCc2cc(OC3CCC(C(=O)NCc4ccno4)CC3)ccc2O1 (stereo not shown)
assay system: human NCX1 (Homo sapiens)
display unit: nM
numeric result: 2200

molecule: Cc1ccccc1C1CCc2cc(O[C@H]3CC[C@H](N)CC3)ccc2O1.Cl (stereo partly shown)
assay system: human NCX1 (Homo sapiens)
display unit: nM
numeric result: 1500

molecule: Cc1ccccc1[C@@H]1CCc2cc(O[C@H]3CC[C@H](C(=O)NCCOP(=O)([O-])[O-])CC3)ccc2O1.[Na+].[Na+] [Example 303, disodium salt]
assay system: human NCX1 (Homo sapiens)
display unit: nM
numeric result: 2500

molecule: Cc1ccccc1C1CCc2cc(O[C@H]3CC[C@@H](C(=O)NCCO)CC3)ccc2O1 (single isomer, unassigned) [Example 269]
assay system: human NCX1 (Homo sapiens)
display unit: nM
numeric result: 3100

molecule: O=C(N[C@H]1CC[C@H](Oc2ccc3c(c2)CCC(c2ccccc2)O3)CC1)[C@@H]1CCCN1 (stereo partly shown)
assay system: human NCX1 (Homo sapiens)
display unit: nM
numeric result: 10000

molecule: NCC(=O)N[C@H]1CC[C@H](Oc2ccc3c(c2)CC[C@@H](c2ccccc2)O3)CC1
assay system: human NCX1 (Homo sapiens)
display unit: nM
numeric result: 2500

molecule: Cc1ccccc1[C@H]1CCc2cc(O[C@H]3CC[C@H](C(=O)NCCO)CC3)ccc2O1
assay system: human NCX1 (Homo sapiens)
display unit: nM
numeric result: 4400

molecule: Cc1ccccc1[C@@H]1CCc2cc(O[C@H]3CC[C@H](C(=O)NCCO)CC3)ccc2O1
assay system: human NCX1 (Homo sapiens)
display unit: nM
numeric result: 500

molecule: Cc1ccccc1C1CCc2cc(O[C@H]3CC[C@@H](C(=O)NCCO)CC3)ccc2O1 (single isomer, unassigned) [Example 270]
assay system: human NCX1 (Homo sapiens)
display unit: nM
numeric result: 1000

molecule: Cc1ccccc1C1CCc2cc(OC3CCC(NCc4c(C)nn(C)c4C)CC3)ccc2O1 (stereo not shown)
assay system: human NCX1 (Homo sapiens)
display unit: nM
numeric result: 200
